Tested on: K. pneumonia 63575 (ESBL)
Assay: microbe, parasite or virus in culture
Conditions: Klebsiella pneumoniae
quantity.kind: MIC

- CC(C)(O/N=C(\C(=O)N[C@@H]1C(=O)N2C(C(=O)[O-])=C(C[n+]3ccccc3)CS[C@H]12)c1csc(N)n1)C(=O)O [Ceftazidime, reference compound]: > 128 µg/mL
- O=C(O)c1cn(C2CC2)c2cc(N3CCNCC3)c(F)cc2c1=O [Ciprofloxacin, reference compound]: 64 µg/mL
- NC[C@H]1O[C@H](O[C@H]2[C@H](O)[C@@H](O[C@H]3O[C@H](CO)[C@@H](O)[C@H](N)[C@H]3O)[C@H](N)C[C@@H]2N)[C@H](N)C[C@@H]1O [Tobramycin, reference compound]: 16 µg/mL
- C[C@@H](O)[C@H]1C(=O)N2C(C(=O)O)=C(SCCN=CN)C[C@H]12 [Imipenem, reference compound]: 0.1 µg/mL
